As shown below, each of these binders has a reported CAR-J2 EC50 (PGLALA-CAR-J activation, L363 target cells) value.
# system.under.test: human GPRC5D (human, UniProt Q9NZD1 1-345)
# Sequence (Q9NZD1 whole entry): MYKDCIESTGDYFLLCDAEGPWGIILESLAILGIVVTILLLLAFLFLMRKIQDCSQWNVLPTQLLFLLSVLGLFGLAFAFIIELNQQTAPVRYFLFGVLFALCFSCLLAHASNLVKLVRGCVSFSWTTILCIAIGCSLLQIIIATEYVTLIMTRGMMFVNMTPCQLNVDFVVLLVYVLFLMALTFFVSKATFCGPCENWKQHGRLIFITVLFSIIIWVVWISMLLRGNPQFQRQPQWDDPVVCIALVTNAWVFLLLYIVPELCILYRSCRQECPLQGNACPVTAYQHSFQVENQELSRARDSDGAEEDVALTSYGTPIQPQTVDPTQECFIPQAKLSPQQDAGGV
# test.summary: cell-based or functional assay
property: CAR-J2 EC50 (PGLALA-CAR-J activation, L363 target cells)

binder | endpoint.value
P1AE5721 (antibody, V domains shown) VH: EVQLLESGGGLVQPGGSLRLSCAASGFTFSKYAMAWVRQAPGKGLEWVASISTGGVNTYYADSVKGRFTISRDNSKNTLYLQMNSLRAEDTAVYYCATHTGDYFDYWGQGTMVTVSS VL: DIVMTQSPDSLAVSLGERATINCKSSQSVSISGINLMNWYQQKPGQQPKLLIYHASILASGVPDRFSGSGSGTDFTLTISSLQAEDVAVYYCQQTRESPLTFGQGTRLEIK | 0.025 µg/mL
P1AE5712 (antibody, V domains shown) VH: EVQLLESGGGLVQPGGSLRLSCAASGFTFSKYAMAWVRQAPGKGLEWVASISTGGVNTYYRDSVKARFTISRDNSKNTLYLQMNSLRAEDTAVYYCATHTGDYFDYWGQGTMVTVSS VL: DIQMTQSPSSLSASVGDRVTITCRASQSVSISGINLMNWYQQKPGKQPKLLIYHASILASGVPSRFSGSGSGTDFTLTISSLQPEDFATYYCQQTRESPLTFGQGTRLEIK | 0.0161 µg/mL
P1AE5713 (antibody, V domains shown) VH: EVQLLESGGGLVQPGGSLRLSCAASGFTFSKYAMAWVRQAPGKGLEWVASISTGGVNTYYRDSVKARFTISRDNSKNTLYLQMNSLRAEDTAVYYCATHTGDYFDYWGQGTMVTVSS VL: DIQMTQSPSSLSASVGDRVTITCRASQSVSISGINLMNWYQQKPGQQPKLLIYHASILASGVPSRFSGSGSGTDFTLTISSLQPEDFATYYCQQTRESPLTFGQGTRLEIK | 0.0769 µg/mL
